# system: ZBP1 KH34 (UniProt Q9NZI8 405-553)
# Sequence (Q9NZI8 405-553): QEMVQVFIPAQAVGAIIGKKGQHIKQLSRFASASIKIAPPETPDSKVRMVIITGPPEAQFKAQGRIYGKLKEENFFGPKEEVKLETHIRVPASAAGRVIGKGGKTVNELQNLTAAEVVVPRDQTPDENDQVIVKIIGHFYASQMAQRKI
# assay-text: EMSA; EMSA: 100 pM RNA, 10 mM Tris, 100 mM NaCl, 0.1 mM EDTA, 0.01 mg/mL tRNA, 50 ug/mL heparin, 0.01% IGEPAL CA630, room temperature, 3 h; pH not stated
# condition-description: protein: recombinant; tags: MBP
measurement-name: Kd (nM)
Number in nM, nothing else.

Can you share its Kd? I mean this binder: ACCGGACUGUUACCAACACCCACACCCC (ssRNA) [C28 beta-actin zipcode WT] 15
